// cross-source set; read-out = IC50; system = BRD2 (Homo sapiens (Human))
Please note: IC50 exactly at 70 nM is False. Only values below 70 nM get True.

{"MOLECULE": "Cc1cc(N2C(=O)c3nc(C4CCOCC4)n(C(C)C)c3C2c2ccc(Cl)cc2)cc2c1nnn2C (centres unmarked)", "MEASURED_TARGET": "BRD2 (Homo sapiens (Human))", "QUALITATIVE_LABEL": "True"}

Task: Lab note: IC50 threshold 70 nM. Does this molecule come in strictly under it? Cc1cc(N2C(=O)c3nc(C4=CCOC4)n(C(C)C)c3C2c2ccc(Cl)cc2)cn2c(C)nnc12 (centres unmarked)
Output: True

Task: Lab note: IC50 threshold 70 nM. Does this molecule come in strictly under it? Cc1nn(C2CC2)c2c1[C@@H](c1ccc(Cl)cc1F)N(c1cc(C)c3nnc(C)n3c1)C2=O
Output: True

Task: Lab note: IC50 threshold 70 nM. Does this molecule come in strictly under it? CCn1c(C)nc2c1C(=O)N(c1cc(C)c3nnn(C)c3c1)C2c1ccc(Cl)cc1 (centres unmarked)
Output: True

Task: Lab note: IC50 threshold 70 nM. Does this molecule come in strictly under it? Cc1nn(C(C)C)c2c1C(=O)N(c1cc(C)c(=O)n(C)c1)C2c1ccc(Cl)cc1 (centres unmarked)
Output: True

Task: Lab note: IC50 threshold 70 nM. Does this molecule come in strictly under it? Cc1c2c(nn1C1CC1)C(=O)N(c1cc(Cl)c(=O)n(C)c1)[C@H]2c1ccc(Cl)cc1
Output: False

Task: Lab note: IC50 threshold 70 nM. Does this molecule come in strictly under it? CNC(=O)n1ccc2c1C(c1ccc(Cl)cc1)N(c1cc(C)c3nnc(C)n3c1)C2=O (centres unmarked)
Output: False
